The measured values listed here are drawn from ChEMBL document CHEMBL5107980.

- targetOrSystem: Genome polyprotein (dengue virus type 2) (UniProt P29990)
- assayComment: Inhibition of DENV2 NS2B-NS3 protease at 50 uM using Bz-Nle-Lys-Arg-Arg-AMC as substrate measured after 30 mins by spectrofluorometer analysis relative to control
Cut-off 80% on inhibition, inclusive. At or above means 1; below means 0.

# molecularString, cat
measured = [
    ("O=C1c2ccccc2C(=O)N1CCCCSc1nnc(-c2ccc(NS(=O)(=O)c3ccc(C(F)(F)F)cc3)cc2)o1", 0),
    ("Cc1ccc(S(=O)(=O)Nc2ccc(-c3nnc(SCc4ccc(C(F)(F)F)cc4)o3)cc2)cc1", 1),
    ("O=C1c2ccccc2C(=O)N1CCCSc1nnc(-c2ccc(NS(=O)(=O)c3ccc(C(F)(F)F)cc3)cc2)o1", 1),
]

* * *

- assayComment: Selectivity Index, ratio of CC50 for hamster BHK-21 cells to EC50 for antiviral activity against DENV2 infected in asian tiger mosquito C6/36 cells
- Format: toxicity
- testConditions: BHK-21 cells (CC50) and DENV2-infected C6/36 cells (EC50)

# molecularString, selectivity ratio
data = [
    ("Cc1ccc(-c2nc3nc4c(c(N5CCN(Cc6ccc7c(c6)OCO7)CC5)n3n2)CCC4)cc1", 14.7),
]

* * *

- Test system: dengue virus type 3
- assayComment: Antiviral activity against DENV3 infected in African green monkey Vero cells assessed as inhibition of virus induced cytopathic effect incubated for 45 mins by focus-formation assay
- Type: functional, organism-based
- testConditions: 0.75 h
valueKind: IC50 (µM)

# molecularString, reportedResult
records = [
    ("FC(F)(F)Oc1cccc(Nc2ccnc(Nc3cccc(OC(F)(F)F)c3)n2)c1", 5),
]

* * *

- assayComment: Cytotoxicity against hamster BHK-21 cells assessed as cell growth inhibition after 48 hrs by MTT assay
- Type: toxicity, cell-based, Mesocricetus auratus
valueKind: CC50 at 48 h (µM)

# molecularString, unitText, reportedResult
measured = [
    ("Cc1ccc(-c2nc3nc4c(c(N5CCN(Cc6ccc7c(c6)OCO7)CC5)n3n2)CCC4)cc1", "µM", 66),
]

* * *

- targetOrSystem: UniProt:P29990
- assayComment: Inhibition of DENV2 NS2B-NS3 protease at 50 uM using Bz-Nle-Lys-Arg-Arg-AMC as substrate by spectrofluorometer analysis relative to control
Recorded inhibition, one value per entry.

# molecularString, inhibition
rows = [
    ("O=c1c2ccccc2sn1-c1ccc(Br)cc1", "80%"),
    ("Cc1cc([N+](=O)[O-])ccc1-n1sc2ccccc2c1=O", "92%"),
    ("O=c1c2ccccc2sn1-c1ccccc1Cl", "94%"),
    ("O=c1c2ccccc2sn1-c1ccccc1O", "89%"),
    ("O=c1c2ccccc2sn1-c1ccccc1[N+](=O)[O-]", "72%"),
    ("O=c1c2ccccc2sn1-c1c(Cl)cccc1Cl", "94%"),
]

* * *

Recorded CC50 at 48 h, one value per entry.
- assayComment: Cytotoxicity against African green monkey Vero cells assessed as cell growth inhibition after 48 hrs by MTT assay
- Assay type: toxicity, cell-based
- testConditions: chlorocebus sabaeus
valueKind: CC50 at 48 h (µg/mL)

# molecularString, reportedResult
measured = [
    ("CCCc1cc(=O)oc2c(C(=O)CC(C)C)c(O)c(CC=C(C)C)c(O)c12", 550),
    ("CC(C)CC(=O)c1c(O)c2c(c3c(-c4ccccc4)cc(=O)oc13)OC(C)(C)C=C2", 3150),
]
